Read-out: Nuclear factor erythroid 2-related factor 2 (Homo sapiens)
Experiment: LTEA_HepaRG_NFE2L2: Life Technologies and Expression Analysis (LTEA) Assay for Nuclear factor erythroid 2-related factor 2 (NFE2L2) Transcription Factor using HepaRG (AID 2283527);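 for Outcome: TaqMan qRT-PCR transcript level normalised to ACTB GAPDH and POLR2A housekeeping genes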
Details: mRNA level, 48 h; actives raise or lower the signal
Calls of active or inactive are those of the source. Rule for the calls: active = hit-call score of the fitted dose curve at least 0.9, where 1 is the maximum; inactive = score below 0.9.
Outcome field: choose from active, inactive

// below: answered compounds
>  <Compound>
CC(C)(O)c1cnn2c(-c3ccc(F)c(-c4c(F)cccc4C#N)c3)cnc2n1

>  <Category Label>
active

$$$$
>  <Compound>
C[N+](C)(C)CC1CO1 (centres undefined)

>  <Category Label>
inactive

$$$$
>  <Compound>
COC(=O)Nc1nc2ccccc2[nH]1

>  <Category Label>
inactive

$$$$
>  <Compound>
Cc1ccc(N)c(N)c1

>  <Category Label>
inactive

$$$$
>  <Compound>
CCCCCOC(=O)c1ccccc1C(=O)OCCCCC

>  <Category Label>
inactive

$$$$

Consider now this further compound.
Which outcome was entered for the compound O=C(Nc1ccccc1)c1ccccc1I in this test?
active
